Provide the recorded EC50 for the entries that follow.
- Tested on: HIV-1 (IIIB)
- MEASUREMENT DESCRIPTION: Inhibition of HIV-1 (IIIB)-induced cytopathicity (giant cell formation) in CEM cells
- Type: cell-based
- CONDITION SUMMARY: read-out: EC50 HIV-1 (concentration required to inhibit HIV-induced giant cell formation by 50%); HIV-1, CEM cell cultures
- Method: A variety of glycopeptide antibiotic derivatives of vancomycin, eremomycin and teicoplanin including their aglycon derivatives were evaluated for their inhibitory activity against HIV-1 (IIIB) and HIV-2(ROD) in CEM cell cultures.

Previously resolved entries follow.
{"columns": ["MOLECULE", "SYSTEM TESTED", "RECORDED RESULT"],
 "data": [
  ["CCCCCCCCCC[N+](C)(C)CCCNCc1c(O)cc2c(c1O)-c1cc(ccc1O)C1NC(=O)C3NC(=O)C4NC(=O)C(Cc5ccc(c(Cl)c5)Oc5cc3cc(c5O)Oc3ccc(cc3Cl)C(O)C(NC1=O)C(=O)NC2C(=O)NCCCN(C)C)NC(=O)C(N)c1ccc(O)c(c1)Oc1cc(O)cc4c1 (stereo not shown) [Compound 34]", "HIV-1 (IIIB)", "2700 nM"],
  ["CCCCCCCCCC[N+](C)(C)CCCNCc1c(O)cc2c(c1O)-c1cc(ccc1O)C1NC(=O)C3NC(=O)C4NC(=O)C(Cc5ccc(c(Cl)c5)Oc5cc3cc(c5O)Oc3ccc(cc3Cl)C(O)C(NC1=O)C(=O)NC2C(=O)NCCCCCCN)NC(=O)C(N)c1ccc(O)c(c1)Oc1cc(O)cc4c1 (stereo not shown) [Compound 42]", "HIV-1 (IIIB)", "1800 nM"],
  ["CCCCCCCCCC[N+](C)(C)CCCNC(=O)C1NC(=O)C2NC(=O)C(NC(=O)C3NC(=O)C4NC(=O)C(Cc5ccc(c(Cl)c5)Oc5cc3cc(c5O)Oc3ccc(cc3Cl)C2O)NC(=O)C(N)c2ccc(O)c(c2)Oc2cc(O)cc4c2)c2ccc(O)c(c2)-c2c(O)cc(O)cc21 (stereo not shown) [Compound 27]", "HIV-1 (IIIB)", "1500 nM"]
]}

// next item, EC50 requested
Exercise: Give the value of EC50 reported for the following: NC1C(=O)NC2Cc3ccc(c(Cl)c3)Oc3cc4cc(c3O)Oc3ccc(cc3Cl)C(O)C3NC(=O)C(NC(=O)C4NC(=O)C(NC2=O)c2cc(O)cc(c2)Oc2cc1ccc2O)c1ccc(O)c(c1)-c1c(O)cc(O)cc1C(C(=O)NC1CC2CCC1C2)NC3=O (stereo not shown) [Compound 162]
Solution: 4500 nM

====

- Test system: HIV-2 (EHO)
- CONDITION SUMMARY: read-out: EC50 CEM/0 HIV-2 (EHO); CEM/0 cells
PARAMETER: EC50 (µM)
Give bare numbers, in µM.

{"columns": ["MOLECULE", "VALUE UNITS", "EC50"],
 "data": [
  ["CN(C)CCCNC(=O)C1NC(=O)C2NC(=O)C(NC(=O)C3NC(=O)C4NC(=O)C(Cc5ccc(c(Cl)c5)Oc5cc3cc(c5O)Oc3ccc(cc3Cl)C2O)NC(=O)C(N)c2ccc(O)c(c2)Oc2cc(O)cc4c2)c2ccc(O)c(c2)-c2c1cc(O)c(CNC1C3CC4CC(C3)CC1C4)c2O (centres unmarked)", "µM", 15]
]}

Exercise: State, for HIV-2 (EHO), measured EC50 of the molecule listed here: CNC(CC(C)C)C(=O)NC1C(=O)NC(CC(N)=O)C(=O)NC2C(=O)NC3C(=O)NC(C(=O)NC(C(=O)O)c4cc(O)c(CN5CCN(Cc6ccc(-c7ccccc7)cc6)CC5)c(O)c4-c4cc3ccc4O)C(O)c3ccc(cc3)Oc3cc2cc(c3O)Oc2ccc(cc2Cl)C1O (centres unmarked)
Solution: 50
